target or system: T1, His-tagged HM1.24 antigen, residues N49-A163 of the extracellular domain (UniProt Q10589 49-163)
T1 chain: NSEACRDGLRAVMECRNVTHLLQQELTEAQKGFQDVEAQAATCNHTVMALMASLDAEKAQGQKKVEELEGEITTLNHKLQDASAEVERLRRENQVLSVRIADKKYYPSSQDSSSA
measurement protocol: Biacore
# key: entry, value: koff
// units = s⁻¹; emit number, no label

Field: example entries. Status: answers known.
>>> result("HM1.24_H2.1 heavy chain variant with HM1.24_L4 light chain (antibody, V domains shown) VH: EVQLVESGGGLVKPGGSLRLSCAASGYTFTPYWMQWVRQAPGKGLEWMGSIFPGEGDTRYSQSFQGQVTISADKSISTAYMELSSLRSEDTAVYYCARGLRRGGYYFDYWGQGTLVTVSS VL: DIVMTQSPLSLPVTLGQPASISCKASQDVNTAVAWYLQKPGKSPKLLIYSASNRYTGVPDRITGSGSGTDFTLKISRVEAEDVGVYYCQQHYSTPFTFGSGTKLEIKR")
0.00266
>>> result("HM1.24_H1.2_L2_Hybrid_S239D/I332E (antibody, V domains shown) VH: QVQLVQSGAEVKKPGASVKVSCKASGYTFTPYWMQWVRQAPGQGLEWMGSIFPGSGDTRYSQSFQGQVTISADKSISTAYMELSRLRSDDTAVYYCARGLRRGGYYFDYWGQGTLVTVSS VL: DIVMTQSPSSLSASVGDRVTITCQASQDVNTAVAWYQQKPDQSPKLLIYSASNRYTGVPDRITGSGSGTDFTLTISSLQAEDVAVYYCQQHYSTPFTFGSGTKLEIKR")
0.00371

INPUT: Which koff is listed for HM1.24_H1.4 heavy chain variant with HM1.24_L4 light chain (antibody, V domains shown) VH: QVQLVQSGAEVKKPGASVKVSCKASGYTFTPYWMQWVRQAPGQGLEWMGSIFPGDADTRYSQSFQGQVTISADKSISTAYMELSRLRSDDTAVYYCARGLRRGGYYFDYWGQGTLVTVSS VL: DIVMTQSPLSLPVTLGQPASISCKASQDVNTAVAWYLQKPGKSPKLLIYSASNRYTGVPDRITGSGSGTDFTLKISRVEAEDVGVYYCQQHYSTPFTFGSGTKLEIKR ?
OUTPUT: 0.00298
